Values were extracted from PubChem BioAssay AID1626.

experimental.details: M. tuberculosis H37Rv growth inhibitors, H37Rv strain (AID 1626);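 also: bacteria incubated seven days before Alamar blue readout; 0% = bacteria only wells and 100% = bacteria with antibiotic wells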
test.context: active compounds read high, concentration not given here
Out of some 220,000 compounds screened, about 2,000 (0.91%) were called active. About 2% were inconclusive and are not listed. A selection follows. Measured potencies and affinities stand elsewhere.
readout.kind: inhibition

Answered cases to consult:
Cc1ccc(/C=C\c2nccc3c2[nH]c2ccccc23)cc1 : 42.1% (inactive)
C/C(=N/NC(=O)CNC(=O)CCc1ccccc1)c1ccc(Cl)cc1 : -2.99% (inactive)
O=C(NCc1ccco1)c1ccccc1-c1ccccc1 : -5.77% (inactive)
COc1ccc(C2C(C(=O)O)c3ccccc3C(=O)N2Cc2ccco2)cc1 (stereo unspecified) : -9.26% (inactive)

Count: 5. Required value per item: inhibition.
1. Cc1cccc(SCC(=O)Nc2ccccc2[N+](=O)[O-])c1
2. O=[N+]([O-])c1ccc(-n2nnnc2-c2ccccc2)cc1
3. Fc1ccc(/C=C\c2nccc3c2[nH]c2ccccc23)cc1
4. COc1ccccc1NC(=S)N(Cc1ccco1)Cc1cc2cc(C)c(C)cc2[nH]c1=O
5. Cc1ccc(NC(=O)c2ccc(N3CCOCC3)c([N+](=O)[O-])c2)cc1S(=O)(=O)N1CCOCC1

["7.5% (inactive)", "1.98% (inactive)", "8.94% (inactive)", "6.98% (inactive)", "5.87% (inactive)"]

Count: 2. Required value per item: inhibition.
1. CCC(C)C(=O)Nc1cccc(SC)c1 (stereo unspecified)
2. Cc1cc(N2CCN(c3cccc(C)c3C)CC2)nc(-c2ccccc2)n1

["0.86% (inactive)", "6.21% (inactive)"]

----------
experimental.details: M. tuberculosis H37Rv growth inhibitors, H37Rv strain (AID 1626)
test.context: active compounds read high, concentration not given here
Out of some 220,000 compounds screened, about 2,000 (0.91%) were called active. Roughly 2% stayed inconclusive and do not appear here. These entries were drawn from the full list. Potency and affinity values are given separately.
readout.kind: inhibition (%)
Answers are plain numbers, in %.

Answered cases to consult:
O=C(COc1ccccc1Cl)Nc1ccc2c(c1)OCCO2 : 5.61
CC(=O)c1cccc(NC(=O)C(C)OC(=O)CNC(=O)c2ccc(C)s2)c1 (stereo unspecified) : -1.06
Cc1ccc(-c2csc3nc[nH]c(=O)c23)cc1 : -5.48

Count: 6. Required value per item: inhibition.
1. NNC(=O)CN1C(c2cccc(Cl)c2)=Nc2ccc(Br)cc2C1c1ccccc1 (stereo unspecified)
2. COc1ccc(C2=Nc3ccc(C)cc3C(c3ccccc3)N2CC(=O)NN)cc1 (stereo unspecified)
3. O=C(O)c1ccccc1NC(=S)NC(=O)c1sc2ccccc2c1Cl
4. O=C(O)C(Cc1c[nH]c2ccccc12)N1Cc2ccccc2C1=O (stereo unspecified)
5. CCCCC(=O)Nc1cccc(NC(=O)CC)c1
6. O=C(CCC1CCCCC1)NNC(=O)NC12CC3CC(CC(C3)C1)C2

1. -2.26
2. -0.28
3. -3.63
4. -8.14
5. 3.01
6. -2.75

Count: 2. Required value per item: inhibition.
1. Cc1ccc(NC(=O)COC(=O)/C=C/c2cccs2)cc1
2. C/C(=C\C(=S)Nc1ccccc1)Nc1ccccc1

1: -0.47; 2: 4.78

----------
experimental.details: M. tuberculosis H37Rv growth inhibitors, H37Rv strain (AID 1626);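 also: bacteria incubated seven days before Alamar blue readout; 0% = bacteria only wells and 100% = bacteria with antibiotic wells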
test.context: active compounds read high, concentration not given here
The campaign covered roughly 220,000 compounds. About 2,000 (0.91%) were called active. Inconclusive results (about 2%) are left out. Only a sample is shown. Potency and affinity values are given separately.
readout.kind: inhibition (%)
One number for each entry, in %.

Answered cases to consult:
Cc1n[nH]c(C)c1CCCOc1ccccc1 : -17.6
COCCn1c(=NC(=O)c2cc(Cl)sc2Cl)sc2cc(S(N)(=O)=O)ccc21 : 17.1
COc1ccc2[nH]c(=O)c(CN(C)C(=O)C3CCCCC3)cc2c1 : 4.58
CCOC(=O)c1c(NC(=O)COC(=O)c2cc(OC)c(OC)cc2[N+](=O)[O-])sc(C)c1C : 0.78
COc1ccc(OC)c(C2C=C(c3ccc(C)c(C)c3)Nc3nnnn32)c1 (stereo not given) : 6.69
O=C(Nc1ccc(CN2CCOCC2)cc1)c1ccc(-c2cccc(Cl)c2)o1 : 8.55
Cc1cccc(C)c1OCCCCc1c(C)n[nH]c1C : 78.5
CC(OC(=O)C1=COCCO1)C(=O)Nc1ccccc1C#N (stereo not given) : -7.04
CCOC(=O)C1=C(C)NC(=O)NC1c1c(C)nn(-c2ccccc2)c1Cl (stereo not given) : -11.2
COc1ccc(-n2nnc3c(=O)n(Cc4cccc(C)c4)cnc32)cc1 : -11.3

Count: 6. Required value per item: inhibition.
1. O=Cc1cn(CC(=O)NCC2CCCO2)c2ccccc12 (stereo not given)
2. CCCC(=O)c1c[nH]c(C(=O)NCc2ccco2)c1
3. Cn1nc(-c2ccc(OCC(N)=O)cc2)c2ccccc2c1=O
4. Cc1cc(C)nc(N2CCC(C(=O)NCc3ccccc3F)CC2)n1
5. CCC(Sc1nc2ccccc2c(=O)[nH]1)C(=O)Nc1ccc(C(C)=O)cc1 (stereo not given)
6. Nc1nc(F)nc2c1ncn2[C@@H]1O[C@H](CO)[C@@H](O)[C@@H]1O

[2.23, -9.43, 9.43, -8.28, 10.9, 72.3]

Count: 4. Required value per item: inhibition.
1. CCc1nc(NCCCn2ccnc2)c2oc3ccccc3c2n1
2. Cc1nc(NCCCn2ccnc2)c2ccccc2n1
3. COc1ccc(C2=NC(C(F)(F)F)(C(F)(F)F)c3c(n(C)c(=O)n(C)c3=O)N2)cc1
4. CCN(CC)c1nc(-c2nn[nH]n2)nc(N(CC)CC)n1

1: -11.5; 2: -2.03; 3: -0.04; 4: -3.01

Count: 4. Required value per item: inhibition.
1. CC(=O)Nc1cccc(C(=O)/C=C/c2ccc(/C=C/C(=O)c3cccc(NC(C)=O)c3)cc2)c1
2. N#Cc1ccccc1Cn1c(=O)n(Cc2ccc(C(=O)NCc3ccco3)cc2)c(=O)c2sccc21
3. CC(=O)Nc1cccc(C(=O)/C=C/c2ccc(F)cc2)c1
4. COc1ccccc1C(=O)C1CCCN(C(=O)CCC(=O)c2ccccc2)C1 (stereo not given)

1: 2.15; 2: -3.31; 3: 16.5; 4: 4.79

Count: 6. Required value per item: inhibition.
1. Nc1ncnc2c1ncn2[C@@H]1O[C@H](CO)[C@@H](O)[C@H]1O
2. COC(=O)c1ccc(C(C(=O)NC2CCCCC2)N(C(=O)Cc2cccs2)C2CC2)cc1 (stereo not given)
3. Cc1n[nH]c(C)c1CCOc1ccc(C(C)C)cc1
4. Cc1ccccc1OCCCc1c(C)n[nH]c1C
5. CCN1/C(=C\C(C)=O)Sc2ccc(OC)cc21
6. Cc1ccc(-n2c(C)cc3c2CCCC3=O)cc1

-2.69
-2.62
-3.37
33
-5.41
-0.32

----------
So I've got a bunch of compounds here, and I need their inhibition values.
experimental.details: M. tuberculosis H37Rv growth inhibitors, H37Rv strain (AID 1626);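 also: bacteria incubated seven days before Alamar blue readout; 0% = bacteria only wells and 100% = bacteria with antibiotic wells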
test.context: active compounds read high, concentration not given here
The campaign covered roughly 220,000 compounds. About 2,000 (0.91%) were called active. Not shown: some 2% with an inconclusive outcome. Not all results are given here. Potency and affinity values are given separately.
One number for each entry, in %.

CCCCNC(=O)COC(=O)c1ccc(C)c(NC(=O)c2ccco2)c1 : -7
COc1ccc(C(=O)CN2CCOCC2)cc1F : -8.03
Cc1ccc(CNC(=O)CCc2nc(-c3cccs3)no2)cc1 : 6.02
CCOC(=O)c1c(CSC(=N)N)n(-c2ccccc2)c2cc(Br)c(OC(C)=O)cc12 : -0.53
Cc1n[nH]c(=O)n1-c1ccc(OCc2ccccc2)cc1 : -0.14

Count: 5. Required value per item: inhibition.
1. Cc1nc(CC(=O)c2ccc(O)c(C)c2O)cs1
2. O=C1CC(NCc2ccc(F)cc2)C(=O)N1c1ccccc1 (centres undefined)
3. O=C(c1ccc(C(F)(F)F)cc1)N1CCCCC1
4. CCOC(=O)N1C2=NC(C(=O)OC)=C(C(=O)OC)[C@@H]3N(Cc4ccccc4)c4ccccc4[C@]23C[C@H]1C(=O)OC
5. COc1ccccc1-n1c(SCC(=O)Nc2ccccc2C)nc(O)cc1=O

7.54
-1.25
-0.08
-6.13
-5.47

----------
So I've got a bunch of compounds here, and I need their inhibition values.
experimental.details: M. tuberculosis H37Rv growth inhibitors, H37Rv strain (AID 1626);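 also: bacteria incubated seven days before Alamar blue readout; 0% = bacteria only wells and 100% = bacteria with antibiotic wells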
test.context: active compounds read high, concentration not given here
The whole screen tested about 220,000 compounds, of which about 2,000 (0.91%) were called active. Inconclusive results (about 2%) are left out. These entries were drawn from the full list. Entries with a potency or affinity are not part of this list.
Give bare numbers, in %.

Answered cases to consult:
O=C(COc1ccc(Cl)cc1)NCc1nnc2c3ccccc3c(-c3ccccc3)nn12 : 32.3
COc1cc(-c2nnc(SCC(=O)c3ccc(C)cc3)o2)cc(OC)c1OC : 2.03
CCOc1cc(Br)ccc1S(=O)(=O)N1CCC(C(N)=O)CC1 : -1.13
Cc1ccc(C(=O)Cn2nnc(-c3cccs3)n2)cc1 : -5.53
N#CCSc1nc2ccccc2c(=O)n1CC1CCCC1 : -2.18
Cc1ncc([N+](=O)[O-])n1CC(=O)NC(C)(C)C : -1.73
Cc1ccc(C2CC(C(F)(F)F)n3ncc(C(N)=O)c3N2)cc1 (stereo not drawn) : -4.41
ClCc1csc(N/N=C/c2cccs2)n1 : -4.27
COc1ccccc1N1CCN(C(=O)C(Sc2ccccc2)c2ccccc2)CC1 (stereo not drawn) : -2.82
O=C(Cn1nnc(-c2ccc(Cl)cc2)n1)NCC1CCCCC1 : 3.64

Count: 4. Required value per item: inhibition.
1. Cc1nc(NC(=O)c2ccc(Cl)cc2)sc1Cc1ccc2c(c1)OCO2
2. COc1ccc(-c2nnc(SCC(=O)N3CCCC3)o2)cc1OC
3. Cc1nc2c(c(=O)n1CCC(C)C)c1nc3ccccc3nc1n2CC1CCCO1 (stereo not drawn)
4. CCC(CC)C(=O)Nc1cc([N+](=O)[O-])ccc1Cl

1: -0.23; 2: -0.93; 3: 2.15; 4: 5.59

Count: 2. Required value per item: inhibition.
1. CCOC(=O)c1c(C)n(-c2ccc(C)cc2)c2ccc(OCC(O)CNCC3CCCO3)cc12 (stereo not drawn)
2. CCCc1nnc(NC(=O)CCCN2C(=O)c3ccccc3C2=O)s1

[0.55, -6.93]
